experimental system: T1, cynomolgus monkey EL-C2 tag (cynomolgus monkey, UniProt Q9Y5X9 21-500 (human entry), limits assumed)
T1 construct: used as heparin extract of transfected HEK293F cells; also called cynomolgus EL
T1 chain: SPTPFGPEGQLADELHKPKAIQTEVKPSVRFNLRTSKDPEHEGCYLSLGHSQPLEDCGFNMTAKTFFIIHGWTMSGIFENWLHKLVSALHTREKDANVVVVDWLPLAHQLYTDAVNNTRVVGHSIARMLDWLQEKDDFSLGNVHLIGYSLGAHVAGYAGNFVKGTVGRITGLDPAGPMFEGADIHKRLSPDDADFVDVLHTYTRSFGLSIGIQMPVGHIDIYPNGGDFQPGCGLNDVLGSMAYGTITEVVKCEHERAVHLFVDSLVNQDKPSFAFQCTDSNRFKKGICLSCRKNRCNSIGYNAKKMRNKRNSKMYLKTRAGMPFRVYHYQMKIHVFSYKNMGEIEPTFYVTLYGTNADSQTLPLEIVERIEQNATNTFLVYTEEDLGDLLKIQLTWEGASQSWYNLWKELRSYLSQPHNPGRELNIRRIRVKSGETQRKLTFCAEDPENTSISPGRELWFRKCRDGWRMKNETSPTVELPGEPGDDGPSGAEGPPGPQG
assay procedure: Biacore SPR; EL heparin extract captured by anti-C2-tag antibody on CM5, antibody as analyte, bivalent fit
Below: a set of entries, each annotated with reported kon.
The answer is to be given in M⁻¹ s⁻¹; state only the numeric part.

{"binder": "47B2 antibody (antibody, IgG2a, V domains shown) VH: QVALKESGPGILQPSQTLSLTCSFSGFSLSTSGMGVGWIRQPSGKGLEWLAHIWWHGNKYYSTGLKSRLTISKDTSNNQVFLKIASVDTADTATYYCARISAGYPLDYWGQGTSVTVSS VL: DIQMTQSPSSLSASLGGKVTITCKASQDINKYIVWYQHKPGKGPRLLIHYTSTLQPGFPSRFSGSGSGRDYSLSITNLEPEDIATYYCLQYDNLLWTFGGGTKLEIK", "output unit": "M⁻¹ s⁻¹", "data value": 250000}
{"binder": "41H8 antibody (antibody, IgG1, V domains shown) VH: QVTLKESGPGILQPSQTLSLTCSFSGFSLSTYGMGVGWIRQPSGKGLEWLAHIWWNENKYYNTDLKSRLTISKDTSNNQVFLKIASVDTADTATYYCARIGPGVPFDYWGQGTTITVSS VL: DIQMTQSPSSLSASLGGKVTITCKASQDINKFIAWYQHKPGKGPRLLIHYTSTLQPGIPSRFNGSGSGRDYSFTISNLEPEDIATYYCLQYDILTWTFGGGTKLEIK", "output unit": "M⁻¹ s⁻¹", "data value": 160000}

Please turn your attention to the following entry.
The recorded kon for entry 16A11 antibody (antibody, IgG1, V domains shown) VH: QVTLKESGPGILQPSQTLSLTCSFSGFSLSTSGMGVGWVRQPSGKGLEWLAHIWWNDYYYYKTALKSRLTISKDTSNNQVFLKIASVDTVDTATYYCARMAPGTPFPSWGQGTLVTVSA VL: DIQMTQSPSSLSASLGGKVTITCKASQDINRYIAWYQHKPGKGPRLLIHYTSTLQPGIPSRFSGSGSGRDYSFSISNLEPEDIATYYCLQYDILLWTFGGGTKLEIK equals 140000
